System: MS2 coat protein
Procedure Summary: apparent KD of MS2 coat protein; designed switch direction (-1 OFF switch, 1 ON switch): -1; higher = weaker reporter binding
Experimental Conditions: input ligand: FMN 200 uM
Can you tell me apparent KD of MS2 coat protein for the items I'm about to list?
One number for each entry, in nM.

# annotated cases, reported apparent KD of MS2 coat protein shown
1) UAGAUACAUGAGGAUCACCCAUGUGAGGAUAUGAGAAUUAUAUUAAAUGAAUUAAUUUUCAGAAGGCACAAAGG [JR_Ex1_Sub052] (Eterna round: R97, puzzle: Exclusion 1) :: 177
2) GGUAACAUGAGGAUCACCCAUGUGAUACGUUACAUAUAAACCGAGGAUAUACCCUCAGAACGAGGGUAGAAGGUGGGACGACAC [Eternabot solution 8] (Eterna round: R96, puzzle: Exclusion NG 3) :: 95.8
3) CUCGUGCAGCAAAGCUGUACGAGUACAUGAGGAUCACCCAUGUAGGAUAUGGUACGCAAAGCGUGCUAGAAGGAUAUGUGAAGG [Mat - Exclusion NG 3 - Mod of JL - D88] (Eterna round: R96, puzzle: Exclusion NG 3) :: 49.4
4) ACGGACGCAGGAUAUCGCACCGGAGACUUGAGGAUCACCCAAGUGGUUUUCCCUUCGCAACGAGAAGGGCGACCUA [Tiarle] (Eterna round: R97, puzzle: Exclusion 5) :: 55.7

Please look up its apparent KD of MS2 coat protein: UCCUUACAUGAGGAUCACCCAUGUGAGGAUAUGAGGGUUGAUUUAAAUGGGUUGAUUUUCAGAAGGCACAUGAA [JR_Ex1_Sub062] (Eterna round: R97, puzzle: Exclusion 1) 46.2

----------
Tested on: MS2 coat protein
Procedure Summary: apparent KD of MS2 coat protein; designed switch direction (-1 OFF switch, 1 ON switch): -1; higher = weaker reporter binding
Experimental Conditions: Eterna round: R95; input ligand: none
Quantity Measured: apparent KD of MS2 coat protein (nM)
Answers are plain numbers, in nM.

# annotated cases, reported apparent KD of MS2 coat protein shown
1) AAGGCCUGAGGAUAUCAGAGUCUAAACAUGAGGAUCACCCAUGUGAACCUGGUCAGUCUGUGAGAAGGUAGUGCUC [Tequat] (puzzle: Exclusion 5) :: 57.3
2) UUUAAAACAUAGGAUAUCGAAUUAAUCAUUUAACGAGAAGGAUGAACAUGAGGAUCACCCAUGUGGUAUCAUGG [Mat - Exclusion 6 - JL Mod - D19] (puzzle: Exclusion 6) :: 270
3) CUGAGGUAGCGGUCCUAUGACAUGAGGAUCACCCAUGUACCUUGCUACGAGCUUUUUGCUCGUCUUAUAAUUCUCAG [Mat - Sensor v3 - turn-off var 1 - JL Mod - D31] (puzzle: Sensor v3, turn-off variant 1) :: 247
4) AAGAAACAUGAGGAUCACCCAUGUCAGGAUAUCCGAAAAGAAAAGAAAAGAAAAGAAAGGAGAAGGGACAAAAG [Default title] (puzzle: Exclusion 1) :: 76

Please look up its apparent KD of MS2 coat protein: GAUUGACAUGAGGAUCACCCAUGUGAGGAUAUCGGCCGGACCUUGUUAGCUUCCGUCGCGAGAAGGCGCAUAGG [Exclusion 1 V37] (puzzle: Exclusion 1) 33.2

----------
System: MS2 coat protein
Procedure Summary: apparent KD of MS2 coat protein; designed switch direction (-1 OFF switch, 1 ON switch): 1; higher = weaker reporter binding
Experimental Conditions: input ligand: none
Tick Y if apparent KD of MS2 coat protein is 300 nM or greater. Tick N if apparent KD of MS2 coat protein is less than 300 nM.

1. GCUCGGCUGAUGGCCUACAUGAGGAUCACCCAUGUGACUGGGCAGGAUAUCUAGAUGCAGGAUGUAGAGAAGGGCCUGCCGAGC [SameState NG3 #42] (Eterna round: R96, puzzle: Same State NG 3) :: Y
2. UUCCCAGCGGGAGGAUAUGGUGCCUUGUUGGUGCUAGAAGGUCCAACAUGAGGAUCACCCAUGUGGGAGUGGUCUAAUGACCUC [SS NG10LRO08] (Eterna round: R96, puzzle: Same State NG 1) :: Y
3. GCCAUCGUAUGAGGAUAUGGCACCGUUUCGGUGCCAGAAGGCAUGUCAAUUGACAUGAGGAUCACCCAUGUAUUAUCGAUGGCA [JL Fiskers NG1ss - 33 mod 6] (Eterna round: R96, puzzle: Same State NG 1) :: Y
4. AGAUCAUGACGAGGAUAUGGUACAUGAGGAUCACCCAUGUAUGUACCAUAACGCGUACGACGAAACCAGAAGGCGUCGUGGUCA [JL SSNG2 1.08] (Eterna round: R96, puzzle: Same State NG 2) :: N

Shifting focus to the sequence that follows.
// inclusive: apparent KD of MS2 coat protein at least 300 nM? input: CUCCCAGCGGGAGGAUAUGGUGCCUUGUUGGUGCUAGAAGGUCCAACAUGAGGAUCACCCAUGUGGGAGUGGUUGAGAGACCUC [SS NG10LRO12] (Eterna round: R96, puzzle: Same State NG 1) N
